measurement.target: MsepCSP8 (Mythimna separata, UniProt A0A1V1WC03)
Sequence (A0A1V1WC03 entry or part of it): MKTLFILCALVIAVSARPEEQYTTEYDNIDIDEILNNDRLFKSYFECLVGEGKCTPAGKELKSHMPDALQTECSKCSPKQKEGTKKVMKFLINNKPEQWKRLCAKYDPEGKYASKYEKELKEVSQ
protocol: Fluorescence competitive binding assay with 1-NPN as fluorescent probe
study.conditions: discussion of Table 1; pH not stated
assay.metric: binding affinity to MsepCSP8 in words

Solved cases (5 shown):
INSERT INTO measurements (compound, assay_metric, test_value) VALUES
  ('CCCCCC', 'binding affinity to MsepCSP8 in words', 'bound highly'),
  ('CC1=CC[C@@H]2[C@@H]3[C@H]1[C@@]2(C)CCCC3(C)C [(+)-α-longipinene]', 'binding affinity to MsepCSP8 in words', 'high binding affinities'),
  ('CCCCCCCCCCCCCCCCCCCCC', 'binding affinity to MsepCSP8 in words', 'bound highly'),
  ('C=C1CC[C@@H]2C[C@H]1C2(C)C [(R)-(+)-β-pinene]', 'binding affinity to MsepCSP8 in words', 'high binding affinities'),
  ('CC1=CCC(=C(C)C)CC1', 'binding affinity to MsepCSP8 in words', 'high binding affinities');

// next entry
IN: Let me know recorded binding affinity to MsepCSP8 in words for CC1=CCC(O)(C(C)C)CC1 (single isomer, unassigned; (-)) , thanks.
OUT: high binding affinities
